Exercise: for every item that follows, state its recorded TGI.
tested on: PC-3 prostate; test: NCI tumour cell line growth inhibition, 48 h

[[record]]
molecule = "CCc1ccc2c(c1)CC1(C2)Cc2cc3c(cc2C1)C(=O)CC3 (stereo not given)"
result_type = "TGI"
measured_result = "64.1 µM"


Dear colleague, could you send me TGI for each of the items below? Thanks.
1. Cc1ccc(NC(=O)Cn2c(Br)nc3c2c(=O)n(C)c(=O)n3C)cc1
2. C=CC[C@@]1(C(=O)OC)[C@H](Sc2ccccc2)C1(C)C
3. COc1cc(S(C)(=O)=O)ccc1Nc1nc2ccc(-c3ccc(NC(=O)[C@H](C)c4ccc(F)cc4)cc3)cn2n1
4. O=C1Nc2cccc3cc(NCC(O)CCl)cc1c23 (stereo not given)
5. COC(=O)[C@@]12CCCC(=O)[C@@H]1[C@H]1CCCC[C@H]12

OUT:
1. 24.1 µM
2. > 100 µM
3. > 100 µM
4. > 100 µM
5. > 100 µM

* * *

tested on: UO-31 renal; experiment: NCI tumour cell line growth inhibition, 48 h
Consider the following molecules; for each one, report its TGI.

[[record]]
molecule = "O=C(NCCCNCCNC(=O)c1cc(-c2ccccc2)nc2ccccc12)c1cc(-c2ccccc2)nc2ccccc12"
measured_result = "3.89 µM"

[[record]]
molecule = "CC1(Cl)CC2C(CC1Sc1nnnn1-c1ccccc1)C2(C)C (centres undefined)"
measured_result = "> 100 µM"

[[record]]
molecule = "Cc1ccc(S(=O)(=O)c2c(O)c3ccccc3n(C)c2=O)cc1"
measured_result = "> 100 µM"

[[record]]
molecule = "COc1cc2nc(-c3ccc(C(F)(F)F)cc3)cc(OCCCN3CCCCC3)c2cc1OC"
measured_result = "12.5 µM"

[[record]]
molecule = "[N-]=[N+]=Nc1ccc(CNc2cc(=O)[nH]c(=O)[nH]2)cc1"
measured_result = "> 100 µM"


Hi! Can you tell me TGI for each of these molecules?
1. O=C(O)CSc1ncccc1[N+](=O)[O-]
2. CN(C)C(=O)O[C@@H]1CN[C@@H](C#Cc2cc3ncnc(Nc4ccc(OCc5cccc(F)c5)c(Cl)c4)c3s2)C1
3. CCN(CC)C1CC(n2cc(C)c(=O)[nH]c2=O)OC1CO (centres undefined)
4. C[C@]12CC[C@H](O)CC1=CC[C@@H]1[C@@H]2CC[C@]2(C)/C(=N/OCCN3CCCC3)CC[C@@H]12

OUT:
1: > 100 µM; 2: > 20.9 µM; 3: > 100 µM; 4: 35.3 µM

* * *

test system: KM12 colon; assay: NCI tumour cell line growth inhibition, 48 h
Result Type: log10 of TGI (log10 of the value in µM)
Base-10 log of TGI, unit µM.

Each molecule below has a recorded value; state its log10 of TGI.
1. O=C1C(Br)=C(c2ccccc2)S(=O)c2ccccc21 (centres undefined)
2. CCC(c1cccc(O)c1)C(CC)c1cccc(O)c1 (centres undefined)
3. C=C1C(=O)OC2/C=C(\C=O)CC/C=C(\C)C(O)C[C@@H]12 (some centres undefined)
4. CSc1cc(N)ccc1N=Nc1ccc(S(N)(=O)=O)cc1
5. O=C([CH-]C(=O)C(F)(F)F)c1ccccc1.O=C([CH-]C(=O)C(F)(F)F)c1ccccc1.O=C([CH-]C(=O)C(F)(F)F)c1ccccc1.O=C([CH-]C(=O)C(F)(F)F)c1ccccc1.[Eu+3].c1ccncc1

OUT:
1: 1.49; 2: 1.13; 3: 1.27; 4: 1.96; 5: 0.91
